Please provide measured mass density for the entries that follow.
Experiment: xn = mol fraction of the nth substance listed
Settings: 293.15 K; 98.93 kPa; Liquid; x1 = 0.03
Numbers after ± are expanded uncertainties.
Field note: include the unit after the figure.

Looking up OCC(O)CO [glycerol] + O , I found its mass density recorded as 1031.22 ± 1.3 kg/m3

Looking up OCCCO [propan-1,3-diol] + O , I found its mass density recorded as 1006.13 ± 1.2 kg/m3

Looking up CCCO [propan-1-ol] + O , I found its mass density recorded as 983.91 ± 1.2 kg/m3

Looking up CC(O)CO (centres undefined) [1,2-propanediol] + O , I found its mass density recorded as 1006.74 ± 1.2 kg/m3
